assay: chemical genetic growth profiling, strain panel (AID 1159580);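 also: tested at 20 µM; growth read once vehicle control cultures reached saturation at 30 °C; 1 = growth at the plate median or of vehicle wells; lower values mean less growth of the strain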; conditions: S. cerevisiae deletion strains, growth OD, locus YHR129C, strain ARP1, stronger effect = lower value
Hit rate of the full screen: of about 5,500 compounds, about 2,000 (36%) were called active. Not shown: some 18% with an inconclusive outcome. The list shows a part of the results.
Exam item: assign t to entries whose normalized growth is below 1 and f to entries at or above 1. Note that a value of exactly 1 receives f.

Molecule: O=C(OC1Cc2c(O)cc(O)cc2OC1c1cc(=O)c(O)c2c(O)c(O)cc(C3Oc4cc(O)cc(O)c4CC3O)c2c1)c1cc(O)c(O)c(O)c1 (stereo not given)
Qualitative Label: t
//
Molecule: NC(=O)NCCCC(N)C(=O)O (stereo not given)
Qualitative Label: f
//
Molecule: CC1CC[C@]2(NC1)O[C@H]1CC3C4CC[C@H]5C[C@@H](O)CC[C@]5(C)C4CC[C@]3(C)[C@H]1[C@@H]2C (stereo not given in full)
Qualitative Label: t

Request: For this molecule, is normalized growth lower than 1? "COc1ccc(-c2oc3cc(O[C@H]4O[C@H](CO)[C@@H](O)[C@H](O)[C@H]4O)c(OC)c(O)c3c(=O)c2OC)cc1O"
Response: t

Request: For this molecule, is normalized growth lower than 1? "COc1cccc2c(C)cc(=O)[nH]c12"
Response: t

----------
assay: chemical genetic growth profiling, strain panel (AID 1159580);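 also: tested at 20 µM; growth read once vehicle control cultures reached saturation at 30 °C; 1 = growth at the plate median or of vehicle wells; lower values mean less growth of the strain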; conditions: S. cerevisiae deletion strains, growth OD, locus YPR167C, strain met16, stronger effect = lower value
Screen size: about 5,500 compounds; about 2,000 (36%) were called active. Another 18% or so got no clear call; they are omitted. The list shows a part of the results.
Parameter normalized growth: see the listing below.
No unit in the answer, please; the number alone is enough.

Completed entries (count: 3):
Compound: CC1CC[C@@]2(OC1)O[C@H]1CC3C4CC[C@@H]5CC(=O)CC[C@]5(C)C4CC[C@]3(C)[C@H]1[C@@H]2C (some centres undefined)
Reported Measurement: 0.985
--
Compound: C[C@@H]1O[C@@H](OC[C@H]2OC(Oc3c(-c4ccc(OCCO)c(OCCO)c4)oc4cc(OCCO)cc(O)c4c3=O)[C@H](O)[C@@H](O)[C@@H]2O)[C@H](O)[C@H](O)[C@H]1O (some centres undefined)
Reported Measurement: 0.99
--
Compound: Cc1ccccc1OCC(O)CO (centres undefined)
Reported Measurement: 0.998

Okay, now this compound:
Request: Quick check: normalized growth of CC(C)(C)NCC(O)c1cc(Cl)c(N)c(Cl)c1 (centres undefined) ?
Response: 0.994

----------
experiment: chemical genetic growth profiling, strain panel (AID 1159580);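 also: tested at 20 µM; growth read once vehicle control cultures reached saturation at 30 °C; 1 = growth at the plate median or of vehicle wells; lower values mean less growth of the strain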; conditions: S. cerevisiae deletion strains, growth OD, locus YNL183C, strain NPR1, stronger effect = lower value
Screen size: about 5,500 compounds; about 2,000 (36%) were called active. Not shown: some 18% with an inconclusive outcome. This is one part of the list.
Exam item: assign Yes to entries whose normalized growth is below 0.9 and No to entries at or above 0.9. Note that a value of exactly 0.9 receives No.

Reference set (5 entries):
Compound: CCCCOc1cc(C(=O)NCCN(CC)CC)c2ccccc2n1
Qualitative Label: No

Compound: Cc1cc(OC(=O)c2c(C)cc(O)cc2O)cc(O)c1C(=O)O
Qualitative Label: No

Compound: CCN(Cc1ccncc1)C(=O)C(CO)c1ccccc1 (stereo not drawn)
Qualitative Label: No

Compound: NC(=O)OCC(COC(N)=O)c1ccccc1
Qualitative Label: No

Compound: Oc1c(Cl)cc(Cl)cc1C=Nc1ccc(Sc2ccccc2)nc1Sc1ccccc1
Qualitative Label: Yes

Request: For this compound, is normalized growth lower than 0.9? CN[C@@H]1C(O)[C@@H](O[C@@H]2[C@@H](O)[C@H](O[C@H]3OC(CN)=CC[C@H]3N)[C@@H](N)C[C@H]2N)OC[C@]1(C)O (stereo partly drawn)
Response: No

Request: For this compound, is normalized growth lower than 0.9? CNC(C)C(O)c1ccccc1 (stereo not drawn)
Response: No

Request: For this compound, is normalized growth lower than 0.9? C[C@H]1O[C@H](OC2[C@@H](O)[C@@H](O)C(O)[C@H](O)[C@H]2O)[C@@H](N)C[C@@H]1N=C(N)C(=O)O (stereo partly drawn)
Response: No

Request: For this compound, is normalized growth lower than 0.9? "COCCCNC(=S)N/N=C\c1cc(Cl)cc(Cl)c1O"
Response: No

Request: For this compound, is normalized growth lower than 0.9? "COCCCNC(=S)N/N=C\c1cc(Br)ccc1O"
Response: No

Request: For this compound, is normalized growth lower than 0.9? CCCCC1C(=O)N(c2ccccc2)N(c2ccc(O)cc2)C1=O (stereo not drawn)
Response: No

Request: For this compound, is normalized growth lower than 0.9? "O=C1Nc2ccccc2/C1=C\c1ccc(Cl)cc1"
Response: Yes

Request: For this compound, is normalized growth lower than 0.9? CC1CC[C@@]2(OC1)O[C@H]1CC3C4CC[C@@H]5C[C@@H](O)CC[C@]5(C)C4CC[C@]3(C)[C@H]1[C@@H]2C (stereo partly drawn)
Response: No

FYI, the data here is from PubChem BioAssay AID1159580.
